// provenance: patent US20260250290A1

- assayedSystem: full length SGK1 (Homo sapiens, UniProt O00141)
- Construct: 125 μM full length SGK1 (Life Technologies Part #PR7358A); purchased Life Technologies PR7358A
- Sequence (O00141 whole entry): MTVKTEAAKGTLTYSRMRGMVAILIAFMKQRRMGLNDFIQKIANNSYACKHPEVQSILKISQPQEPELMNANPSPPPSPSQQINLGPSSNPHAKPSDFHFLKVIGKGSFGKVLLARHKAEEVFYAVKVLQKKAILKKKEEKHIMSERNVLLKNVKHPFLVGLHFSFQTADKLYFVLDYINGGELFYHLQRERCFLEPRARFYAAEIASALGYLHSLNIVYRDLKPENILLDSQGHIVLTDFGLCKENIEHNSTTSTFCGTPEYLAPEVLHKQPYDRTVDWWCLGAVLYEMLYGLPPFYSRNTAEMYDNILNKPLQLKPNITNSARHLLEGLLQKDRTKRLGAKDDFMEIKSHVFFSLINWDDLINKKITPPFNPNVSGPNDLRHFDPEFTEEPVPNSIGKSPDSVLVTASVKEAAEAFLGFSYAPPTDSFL
- procedureSummary: SGK1 inhibition Assay A (Caliper LabChip electrophoretic separation of fluorescent peptide substrate and phosphorylated product)
- Type: biochemical
- details: Assay A; 20 μM ATP, 40 min incubation; read-out: SGK1 IC50
endpointName: IC50
Please format your answer as a value with the unit trailing.

Ask: Could you please provide reported IC50 for CC(C)N1CCC(c2cc(C(F)F)sc2C(=O)N[C@@H]2CCCN(c3cc(-c4ccc(C#N)nc4)n4ncnc(N)c34)C2)C1 (stereo partly drawn) ? Thanks!
Result: 229 nM

Ask: Note IC50 for the compound shown: `CC(=O)N(C)CCOc1cc(Cl)sc1C(=O)N[C@@H]1CCCN(c2cc(C3=CCN(C(C)=O)C3)n3ncnc(N)c23)C1`
Result: 18 nM

Ask: Identify IC50 associated with the compound CC(=O)N1CC=C(c2cc(N3CCC[C@@H](NC(=O)c4cccc(NC5CC(=O)N(C)C5)n4)C3)c3c(N)ncnn23)C1 (stereo partly drawn)
Result: 46 nM
